TARGET_SYSTEM: platelet derived growth factor PDGF-BB (UniProt P01127 82-190)
Sequence (P01127 82-190 limits assumed): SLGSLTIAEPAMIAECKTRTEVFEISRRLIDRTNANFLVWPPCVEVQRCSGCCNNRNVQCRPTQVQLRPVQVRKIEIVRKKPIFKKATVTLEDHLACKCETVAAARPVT
METHOD_NOTES: cell-based or functional assay
Positions of bridges follow the written chain, without caps; N, C: chain ends. Non-standard residues stand in square brackets, D forms with d. d2Nal = N[C@H](Cc1ccc2ccccc2c1)C(=O)O; dAbu = CC[C@@H](N)C(=O)O
PROPERTY_LABEL: IC50, PDGFR-Y-P (µM)
One number for each entry, in µM.

Take a look at these entries with their results.
BINDER | QUANTITATIVE_RESULT
[dAbu]DGD (designed binder, linker N-C via 3‑aminomethyl‑5‑aminobenzamide; also: four loops joined to But-Calix calix[4]arene scaffold) [GFB-121] | 5.6
[dA]DGD (designed binder, linker N-C via 3‑aminomethyl‑5‑aminobenzamide; also: four loops on But-Calix calix[4]arene scaffold) [GFB-108] | 9
[d2Nal]DGD (designed binder, linker N-C via 3‑aminomethyl‑5‑aminobenzamide; also: four loops joined to But-Calix calix[4]arene scaffold) [GFB-118] | 0.7

Shift focus to the following entry.
Query :: Can you share its IC50, PDGFR-Y-P? I mean this binder: GDAD (designed binder, linker N-C via 3‑aminomethyl‑5‑aminobenzamide; also: four loops on But-Calix calix[4]arene scaffold) [GFB-110]
Result :: 1.7
